target: opiate receptors isolated from rat brain (Rattus norvegicus, UniProt P33535); construct: A purified homogenate of receptor membranes was prepared from the brains; assay: Opiate binding assay with (D)Ala^2Glyol^5 Enkephlin as radioactive ligand
Sequence (P33535 whole entry): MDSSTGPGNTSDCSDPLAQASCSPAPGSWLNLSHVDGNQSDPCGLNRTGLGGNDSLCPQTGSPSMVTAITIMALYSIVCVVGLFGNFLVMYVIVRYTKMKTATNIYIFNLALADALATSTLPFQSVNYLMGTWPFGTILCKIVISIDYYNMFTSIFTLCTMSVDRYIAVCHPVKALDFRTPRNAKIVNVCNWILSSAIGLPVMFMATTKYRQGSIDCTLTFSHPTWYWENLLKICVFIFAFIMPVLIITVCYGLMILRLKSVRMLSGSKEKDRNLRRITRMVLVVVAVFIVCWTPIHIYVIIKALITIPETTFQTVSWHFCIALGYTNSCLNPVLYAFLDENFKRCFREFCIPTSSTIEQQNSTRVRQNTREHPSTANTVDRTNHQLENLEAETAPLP
READOUT TYPE: IC50 (nM)

COMPOUND | MEASURED RESULT
Cc1cc(O)cc(C)c1CC(N)C(=O)NCCCSCCc1ccccc1 (racemic) | 3.6
Cc1cc(O)cc(C)c1C[C@H](N)C(=O)NCCCSc1ccccc1 | 20.9

---

target: opiate receptors isolated from rat brain; test: Opiate binding assay (displacement of 3H-Naloxone); settings: 3H-Naloxone 1NM, rat brain membranes, pH 7.4, 25° C., 60 min
Consider the following compounds and their measured IC50 readings.
READOUT TYPE: IC50 (nM)

COMPOUND | READOUT UNITS | MEASURED RESULT
Cc1cc(O)cc(C)c1CC(N)C(=O)NCC[S+]([O-])CCCc1ccccc1 (racemic) | nM | 2.8
Cc1cc(O)cc(C)c1CC(N)C(=O)NCCCS(=O)(=O)CCc1ccccc1 (racemic) | nM | 0.9
Cc1cc(O)cc(C)c1CC(N)C(=O)NCCS(=O)(=O)CCCc1ccccc1 (racemic) | nM | 0.8
Cc1cc(O)cc(C)c1CC(N)C(=O)NCCCSCc1ccccc1 (racemic) | nM | 21
Cc1cc(O)cc(C)c1CC(N)C(=O)NCCSCCCc1ccccc1 (racemic) | nM | 2.2

meta.source: patent US4933369A
